Reported Pair-wise inhibition (%) values for the following binders.
target: recombinant pentameric gH complex (Towne strain) (human cytomegalovirus, Towne strain) (UniProt P17176); test: BLI competition on His-pentamer; competitor (antibody 2): 276.1
Sequence (P17176 30-715, one chain of several): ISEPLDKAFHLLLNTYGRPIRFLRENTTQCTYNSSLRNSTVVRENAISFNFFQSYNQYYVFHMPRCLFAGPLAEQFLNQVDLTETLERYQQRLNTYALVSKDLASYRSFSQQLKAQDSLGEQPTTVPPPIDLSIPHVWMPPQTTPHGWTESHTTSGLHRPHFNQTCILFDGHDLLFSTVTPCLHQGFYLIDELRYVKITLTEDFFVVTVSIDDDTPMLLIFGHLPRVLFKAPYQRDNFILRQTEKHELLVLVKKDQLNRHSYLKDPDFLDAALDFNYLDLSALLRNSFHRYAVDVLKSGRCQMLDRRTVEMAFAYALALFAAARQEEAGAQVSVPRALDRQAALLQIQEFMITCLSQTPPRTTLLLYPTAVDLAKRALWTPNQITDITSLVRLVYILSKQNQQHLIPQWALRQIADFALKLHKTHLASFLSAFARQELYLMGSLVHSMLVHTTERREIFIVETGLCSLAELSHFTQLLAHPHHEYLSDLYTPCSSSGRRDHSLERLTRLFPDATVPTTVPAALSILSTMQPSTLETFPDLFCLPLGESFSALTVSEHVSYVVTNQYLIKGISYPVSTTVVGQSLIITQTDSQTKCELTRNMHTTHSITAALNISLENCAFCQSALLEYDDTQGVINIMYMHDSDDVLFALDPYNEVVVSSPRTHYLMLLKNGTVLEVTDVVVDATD
reported-property: Pair-wise inhibition (%)

[[record]]
binder = "1-85 (antibody, V domains shown) VH: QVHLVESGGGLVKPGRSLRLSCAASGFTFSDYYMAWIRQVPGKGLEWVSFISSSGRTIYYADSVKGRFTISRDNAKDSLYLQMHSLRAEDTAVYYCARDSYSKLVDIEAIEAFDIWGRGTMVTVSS VL: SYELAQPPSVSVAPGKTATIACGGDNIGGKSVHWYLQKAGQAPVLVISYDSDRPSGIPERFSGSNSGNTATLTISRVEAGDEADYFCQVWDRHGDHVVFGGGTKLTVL"
reported_property = "Pair-wise inhibition (%)"
measured_value = -2

[[record]]
binder = "3-7 (antibody, V domains shown) VH: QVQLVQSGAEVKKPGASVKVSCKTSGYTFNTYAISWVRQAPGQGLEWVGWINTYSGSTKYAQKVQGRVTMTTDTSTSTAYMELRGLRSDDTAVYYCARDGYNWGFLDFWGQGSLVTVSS VL: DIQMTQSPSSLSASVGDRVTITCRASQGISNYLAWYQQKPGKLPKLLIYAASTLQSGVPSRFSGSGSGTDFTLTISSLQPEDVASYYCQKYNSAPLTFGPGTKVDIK"
reported_property = "Pair-wise inhibition (%)"
measured_value = 12

